experimental.endpoint: melting point (°C)
One number for each entry, in °C.

Fill in melting point for each of the 5 molecules listed.
1. O=C(CCN1CCCC1)Nc1nc2ccc(Sc3cnc4ncccn34)cc2s1
2. CCN(CC)CC(=O)Nc1nc2ccc(Sc3cnc4ncccn34)cc2s1
3. O=C(Nc1nc2ccc(Sc3cnc4ncccn34)cc2s1)C1CCOCC1
4. CCN1CCN(CC(=O)Nc2nc3ccc(Sc4cnc5ncccn45)cc3s2)CC1
5. COCCC(=O)Nc1nc2ccc(Sc3cnc4ncccn34)cc2s1

Response:
1. 247
2. 180
3. 270
4. 210
5. 225

----------
molecular target: UniProt P08581; experiment: Test A: HTRF MET assay in 96-well format; type: biochemical; set-up: The His-Tev-MET (956-1390) recombinant DNA in pFastBac (Invitrogen) is transfected into insect cells; His (N, cleaved yes); Tev cleavage site (N, cleaved yes); made in house; host or cells: SF21 insect cells (baculovirus, pFastBac); conditions: 5 nM MET, 10 μM ATP
Sequence (P08581 956-1390): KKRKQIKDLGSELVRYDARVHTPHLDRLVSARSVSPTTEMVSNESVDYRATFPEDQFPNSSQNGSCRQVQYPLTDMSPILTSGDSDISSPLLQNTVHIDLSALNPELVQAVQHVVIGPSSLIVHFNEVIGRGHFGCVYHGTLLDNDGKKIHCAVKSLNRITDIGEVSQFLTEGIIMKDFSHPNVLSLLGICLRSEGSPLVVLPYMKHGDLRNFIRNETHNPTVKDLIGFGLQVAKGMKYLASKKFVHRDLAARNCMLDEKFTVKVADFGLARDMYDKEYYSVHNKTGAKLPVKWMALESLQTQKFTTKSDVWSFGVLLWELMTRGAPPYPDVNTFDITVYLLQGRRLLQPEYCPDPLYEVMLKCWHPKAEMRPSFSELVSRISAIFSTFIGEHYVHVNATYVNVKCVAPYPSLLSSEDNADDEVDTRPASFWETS
Counter-ions that a name gives are not always drawn.
Kindly state IC50 for each of the entries shown.

# compound, experimental.endpoint, obs.value
data = [
    ("O=C(CCN1CCCC1)Nc1nc2ccc(Sc3cnc4ncccn34)cc2s1 [Example 8]", "IC50", "< 100 nM"),
    ("NCC(=O)Nc1nc2ccc(Sc3cnc4ncccn34)cc2s1 [Example 12, dihydrochloride]", "IC50", "< 500 nM"),
    ("O=C(Nc1nc2ccc([S+]([O-])c3cnc4ncccn34)cc2s1)C1CC1 (stereo not drawn) [Example 6]", "IC50", "< 500 nM"),
    ("O=C(Nc1nc2ccc(Sc3cnc4ncccn34)cc2s1)C1CC1CN1CCOCC1 (stereo not drawn) [Example 14]", "IC50", "< 100 nM"),
    ("CN1CCN(CC(=O)Nc2nc3ccc(Sc4cnc5ncccn45)cc3s2)CC1=O [Example 21]", "IC50", "< 100 nM"),
]

Quick batch: IC50 for everything below.
1. Nc1ccn2c(Sc3ccc4nc(NC(=O)C5CC5)sc4c3)cnc2n1 [Example 22]
2. O=C(Nc1nc2ccc(Sc3cnc4ncc(OC5CCCCC5)cn34)cc2s1)C1CC1 [Example 24]
3. O=C(Nc1nc2ccc(Sc3cnc4ncccn34)cc2s1)c1ccccc1 [Example 9]
4. O=C(Nc1nc2cc(F)c(Sc3cnc4ncccn34)cc2s1)C1CC1 [Example 18]

Response:
["< 100 nM", "< 100 nM", "< 500 nM", "< 100 nM"]

----------
biological target: MET (Homo sapiens); assay: Test A: HTRF MET assay in 96-well format; format: biochemical; parameters: The His-Tev-MET (956-1390) recombinant DNA in pFastBac (Invitrogen) is transfected into insect cells; His (N, cleaved yes); Tev cleavage site (N, cleaved yes); made in house; host or cells: SF21 insect cells (baculovirus, pFastBac); conditions: 5 nM MET, 10 μM ATP
experimental.endpoint: IC50

# compound, IC50
rows = [
    ("CN1CCN(CC(=O)Nc2nc3ccc(Sc4cnc5ncccn45)cc3s2)CC1", "< 100 nM"),
    ("O=C(Nc1nc2ccc(Sc3cnc4ncccn34)cc2s1)C1CC1CN1CCOCC1 (stereo not drawn) [Example 13]", "< 100 nM"),
    ("O=C(Nc1nc2ccc(Sc3cnc4ncc(NCc5ccccc5)cn34)cc2s1)C1CC1", "< 100 nM"),
]

For every item in the list below, what is its measured IC50?
1. Nc1nc2cc(F)c(Sc3cnc4ncccn34)cc2s1
2. O=C(NCCN1CCOCC1)Nc1nc2ccc(Sc3cnc4ncccn34)cc2s1
3. O=C(Nc1nc2ccc(Sc3cnc4ncccn34)cc2s1)C1CC1
4. COCCC(=O)Nc1nc2ccc(Sc3cnc4ncccn34)cc2s1
5. Nc1nc2ccc(Sc3cnc4ncc(NC5CCCCC5)cn34)cc2s1

Response:
< 100 nM
< 100 nM
< 100 nM
< 100 nM
< 100 nM

Query: Query (compound): CC(=O)Nc1nc2ccc(Sc3cnc4ncccn34)cc2s1 ; field requested: IC50
Response: < 100 nM

----------
Biological target: MET (Homo sapiens)
Assay: Test B: inhibition of the autophosphorylation of MET, ELISA technique (pppY1230, 1234, 1235) in MKN45 cells
Type: cell-based
Design: endogenous in cells; host or cells: MKN45 cells
Conditions: 1 h treatment, phosphoMET ELISA
Description: B) Test B: Inhibition of the Autophosphorylation of MET; ELISA Technique (pppY1230, 1234, 1235) a) Cell lysates: Seed MKN45 cells into 96-well plates (Cell coat BD polylysine) at 20 000 cells/well in 200 μl in RPMI medium+10% FCS+1% L-glutamine. Leave to adhere for 24 hours in an incubator. […] Stop the reaction with 100 μl of stop solution. Read without delay at […], 0.1 second on Wallac Victor plate reader.
Sequence (P08581 25-1390): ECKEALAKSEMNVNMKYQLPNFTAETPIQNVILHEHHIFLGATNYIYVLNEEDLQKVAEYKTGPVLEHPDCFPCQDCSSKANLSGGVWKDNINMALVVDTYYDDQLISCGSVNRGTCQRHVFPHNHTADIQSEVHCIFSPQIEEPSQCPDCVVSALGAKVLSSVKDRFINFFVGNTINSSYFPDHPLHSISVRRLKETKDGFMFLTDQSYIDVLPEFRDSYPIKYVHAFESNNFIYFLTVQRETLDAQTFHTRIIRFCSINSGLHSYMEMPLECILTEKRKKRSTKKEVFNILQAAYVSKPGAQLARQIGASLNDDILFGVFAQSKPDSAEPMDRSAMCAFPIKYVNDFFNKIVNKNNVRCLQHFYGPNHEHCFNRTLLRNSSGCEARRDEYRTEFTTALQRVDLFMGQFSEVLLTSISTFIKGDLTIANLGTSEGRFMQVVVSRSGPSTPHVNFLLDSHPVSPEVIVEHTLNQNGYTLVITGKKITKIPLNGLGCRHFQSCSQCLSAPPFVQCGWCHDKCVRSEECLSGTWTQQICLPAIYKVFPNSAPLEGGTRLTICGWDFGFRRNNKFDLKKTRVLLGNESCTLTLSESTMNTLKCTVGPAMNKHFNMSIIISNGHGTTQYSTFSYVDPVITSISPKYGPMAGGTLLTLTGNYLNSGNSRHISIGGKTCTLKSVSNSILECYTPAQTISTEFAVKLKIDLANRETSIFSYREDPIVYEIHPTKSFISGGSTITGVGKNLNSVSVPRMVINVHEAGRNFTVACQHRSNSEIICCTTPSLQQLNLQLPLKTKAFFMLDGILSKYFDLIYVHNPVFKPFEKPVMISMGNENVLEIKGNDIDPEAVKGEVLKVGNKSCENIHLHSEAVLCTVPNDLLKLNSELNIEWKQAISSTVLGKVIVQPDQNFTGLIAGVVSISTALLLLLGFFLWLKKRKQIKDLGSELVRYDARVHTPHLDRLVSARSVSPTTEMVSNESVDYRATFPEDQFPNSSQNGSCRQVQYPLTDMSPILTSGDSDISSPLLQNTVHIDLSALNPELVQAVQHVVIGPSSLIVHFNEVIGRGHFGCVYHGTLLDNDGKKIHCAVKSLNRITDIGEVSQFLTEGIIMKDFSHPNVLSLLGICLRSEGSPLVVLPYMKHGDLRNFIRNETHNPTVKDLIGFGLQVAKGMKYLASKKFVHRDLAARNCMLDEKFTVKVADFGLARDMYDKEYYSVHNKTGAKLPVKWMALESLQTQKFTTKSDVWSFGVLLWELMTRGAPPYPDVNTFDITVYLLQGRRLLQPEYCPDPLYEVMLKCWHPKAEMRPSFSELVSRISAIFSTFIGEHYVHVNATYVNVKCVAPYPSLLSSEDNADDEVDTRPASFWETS
Hi there, I'd appreciate the recorded IC50 for every entry that follows.

Consider the worked cases shown below.
# compound, IC50
rows = [
    ("O=C(CN1CCN(C2CC2)CC1)Nc1nc2ccc(Sc3cnc4ncccn34)cc2s1", "< 100 nM"),
    ("O=C(Nc1nc2cc(F)c(Sc3cnc4ncccn34)cc2s1)C1CC1", "< 100 nM"),
    ("CCN1CCN(CC(=O)Nc2nc3ccc(Sc4cnc5ncccn45)cc3s2)CC1", "< 100 nM"),
    ("O=C(Nc1nc2ccc(Sc3cnc4ncccn34)cc2s1)C1CC1CN1CCOCC1 (centres unmarked)", "< 100 nM"),
    ("Nc1nc2ccc(Sc3cnc4ncccn34)cc2s1", "< 500 nM"),
]

Record IC50 per entry; entries follow.
1. CN1CCN(CC(=O)Nc2nc3ccc(Sc4cnc5ncccn45)cc3s2)CC1=O
2. O=C(NCCN1CCCC1)Nc1nc2ccc(Sc3cnc4ncccn34)cc2s1

Response:
["< 100 nM", "< 100 nM"]

----------
experimental.endpoint: melting point

Examples with their reported melting point follow.
# structure.smiles.string, melting point
measured = [
    ("O=C(Nc1nc2ccc(S(=O)(=O)c3cnc4ncccn34)cc2s1)C1CC1", "232 °C"),
    ("O=C(CN1CCN(C2CC2)CC1)Nc1nc2ccc(Sc3cnc4ncccn34)cc2s1", "224 °C"),
    ("Nc1nc2cc(F)c(Sc3cnc4ncccn34)cc2s1", "> 264 °C"),
    ("O=C(Nc1nc2ccc(Sc3cnc4ncccn34)cc2s1)c1ccccc1", "> 260 °C"),
    ("O=C(Nc1nc2ccc(Sc3cnc4ncccn34)cc2s1)C1CC1", "258 °C"),
    ("O=C(Nc1nc2ccc(Sc3cnc4ncc(NCc5ccccc5)cn34)cc2s1)C1CC1", "> 260 °C"),
    ("Nc1ccn2c(Sc3ccc4nc(NC(=O)C5CC5)sc4c3)cnc2n1", "> 264 °C"),
    ("O=C(NCCN1CCOCC1)Nc1nc2ccc(Sc3cnc4ncccn34)cc2s1", "> 260 °C"),
]

Turning to the following compound.
Query: Entry O=C(Nc1nc2cc(F)c(Sc3cnc4ncccn34)cc2s1)C1CC1 has what melting point?
Response: > 260 °C

----------
target: MET (Homo sapiens, UniProt P08581); assay: Test B: inhibition of the autophosphorylation of MET, ELISA technique (pppY1230, 1234, 1235) in MKN45 cells; format: cell-based; set-up: endogenous in cells; host or cells: MKN45 cells; details: 1 h treatment, phosphoMET ELISA
pIC50: −log10 of the molar value.
I'd be grateful if you could share measured pIC50 for these entries.

Some compounds with known pIC50 results, for comparison:
# structure.smiles.string, obs.value
rows = [
    ("O=C(Nc1nc2ccc(Sc3cnc4ncccn34)cc2s1)C1CCOCC1", "> 6.30"),
    ("O=C(Nc1nc2ccc(Sc3cnc4ncc(OC5CCCCC5)cn34)cc2s1)C1CC1", "> 7.00"),
]

Quick one: give me pIC50 for each item below, same order please.
1. COCCC(=O)Nc1nc2ccc(Sc3cnc4ncccn34)cc2s1
2. CN1CCN(CC(=O)Nc2nc3ccc(Sc4cnc5ncccn45)cc3s2)CC1
3. O=C(Nc1nc2ccc(Sc3cnc4ncccn34)cc2s1)C1CC1
4. CCN(CC)CC(=O)Nc1nc2ccc(Sc3cnc4ncccn34)cc2s1
5. O=C(CCN1CCCC1)Nc1nc2ccc(Sc3cnc4ncccn34)cc2s1

Response:
> 7.00
> 7.00
> 7.00
> 6.30
> 7.00
